# Test system: Nakaseomyces glabratus
# MEASUREMENT DESCRIPTION: Evaluation of In vitro antifungal activity against Torulopsis glabrata 78 by broth macro dilution method
# Format: functional
Here, each record is paired with measured MFC data.

Examples with answers:
INSERT INTO results (compound, result) VALUES
  ('C[C@H]1N(C(=O)c2ccc(C(F)(F)F)cc2)CCO[C@@]1(Cn1cncn1)c1ccc(F)cc1F (stereo in doubt; (-)-41)', '> 64 µg/mL'),
  ('C[C@H]1N(C(=O)c2ccc(C(F)(F)F)cc2)C[C@H](O)O[C@@]1(Cn1cncn1)c1ccc(F)cc1F (stereo in doubt; (-)-39a)', '> 64 µg/mL'),
  ('C[C@@H](NC(=O)c1ccc(C(F)(F)F)cc1)[C@](O)(Cn1cncn1)c1ccc(F)cc1F', '> 64 µg/mL'),
  ('CC(=O)N1CCN(c2ccc(OC[C@H]3CO[C@](Cn4ccnc4)(c4ccc(Cl)cc4Cl)O3)cc2)CC1', '> 16 µg/mL');

Let us move to another entry and its MFC.
Reported MFC for OC(Cn1cncn1)(Cn1cncn1)c1ccc(F)cc1F was > 64 µg/mL

====

# Tested on: Mus sp.
# MEASUREMENT DESCRIPTION: In vivo evaluation of % survival rate after peroral administration on 7th day at dose 1 mg/kg
# Assay type: functional
# CONDITION DETAILS: route oral, 1 mg/kg
Binary label based on Survival with cut-off 70%: below gives Fulfilled, not below gives Not fulfilled.

Example results:
INSERT INTO assay_data (compound, category_label) VALUES
  ('C[C@H]1N(C(=O)c2ccc(C(F)(F)F)cc2)C[C@H](O)O[C@@]1(Cn1cncn1)c1ccc(F)cc1F (racemic)', 'Fulfilled'),
  ('C[C@H]1N(C(=O)c2ccc(C(F)(F)F)cc2)CCO[C@@]1(Cn1cncn1)c1ccc(F)cc1F (stereo in doubt)', 'Not fulfilled'),
  ('C[C@H]1N(C(=O)c2ccc(C(F)(F)F)cc2)CC(=O)O[C@@]1(Cn1cncn1)c1ccc(F)cc1F', 'Not fulfilled'),
  ('C[C@H]1N(C(=O)c2ccc(C(F)(F)F)cc2)CC(=O)O[C@@]1(Cn1cncn1)c1ccc(Cl)cc1Cl (stereo in doubt; (+)-32a)', 'Fulfilled'),
  ('C[C@H]1N(C(=O)c2ccc(C(F)(F)F)cc2)CC(=O)O[C@@]1(Cn1cncn1)c1ccc(F)cc1F (racemic)', 'Fulfilled'),
  ('C[C@H]1N(C(=O)c2ccc(C(F)(F)F)cc2)C[C@H](O)O[C@@]1(Cn1cncn1)c1ccc(F)cc1F (stereo in doubt; (-)-39a)', 'Not fulfilled'),
  ('C[C@H]1N(C(=O)c2ccc(C(F)(F)F)cc2)CC(=O)O[C@@]1(Cn1cncn1)c1ccc(Cl)cc1Cl (racemic)', 'Fulfilled'),
  ('C[C@H]1N(C(=O)c2ccc(C(F)(F)F)cc2)CCO[C@@]1(Cn1cncn1)c1ccc(F)cc1F (racemic)', 'Fulfilled');

Prompt line: Check if Survival falls below 70% for C[C@@H](NC(=O)c1ccc(C(F)(F)F)cc1)[C@](O)(Cn1cncn1)c1ccc(F)cc1F (racemic) .
Response line: Not fulfilled

====

# Tested on: Microsporum canis
# MEASUREMENT DESCRIPTION: In vitro evaluation of minimum inhibitory concentration against Microsporum canis 47
# Assay type: functional
ENDPOINT LABEL: MIC (µg/mL)
# number only, unit µg/mL dropped from output

Reported MIC for C[C@@H](NC(=O)c1ccc(C(F)(F)F)cc1)[C@](O)(Cn1cncn1)c1ccc(F)cc1F was 20

Reported MIC for C[C@H]1N(C(=O)c2ccc(C(F)(F)F)cc2)CCO[C@@]1(Cn1cncn1)c1ccc(F)cc1F (racemic) was 40

Sourced from ChEMBL document CHEMBL1128448
